// provenance: patent US8263575B2

test system: U937 leukemia cell line; experiment: MTS assay (CellTiter96 Aqueous One solution proliferation assay), U937; format: cell-based; conditions: U937; Table IA; read-out: IC50 ± standard deviation
Would you kindly list IC50 for each of these compounds?

A selection of reference data follows.
Briefly, IC50 measured for C[C@H](NP(=O)(OC[C@H]1O[C@@H](n2cnc3c(N)nc(Cl)nc32)C[C@@H]1O)Oc1cccc2ccccc12)C(=O)OCc1ccccc1 (stereo partly drawn) [CPF211] : 280 nM

Briefly, IC50 measured for C[C@H](NP(=O)(OC[C@H]1O[C@@H](n2cnc3c(N)nc(Cl)nc32)C[C@@H]1O)Oc1ccccc1)C(=O)OCc1ccccc1 (stereo partly drawn) : 80 nM

Briefly, IC50 measured for Nc1nc(Cl)nc2c1ncn2[C@H]1C[C@H](O)[C@@H](CO)O1 [Cladribine, reference compound] : 2080 nM

# batch: return IC50 for each of the 3 compounds below
1. C[C@H](NP(=O)(OC[C@H]1O[C@@H](n2cnc3c(N)nc(Cl)nc32)C[C@@H]1O)Oc1ccc(Cl)c2ccccc12)C(=O)OCc1ccccc1 (stereo partly drawn)
2. C[C@H](NP(=O)(OC[C@H]1O[C@@H](n2cnc3c(N)nc(Cl)nc32)C[C@@H]1O)Oc1cccc2ccccc12)C(=O)OCc1ccccc1 (stereo partly drawn) [CPF210]
3. C[C@H](NP(=O)(OC[C@H]1O[C@@H](n2cnc3c(N)nc(Cl)nc32)C[C@@H]1O)Oc1cccc2ccccc12)C(=O)OCc1ccccc1 (stereo partly drawn) [CPF212]

**A:**
1. 550 nM
2. 190 nM
3. 140 nM
